# STUDY_SYSTEM: UniProt:P35348
# Sequence (P35348 whole entry): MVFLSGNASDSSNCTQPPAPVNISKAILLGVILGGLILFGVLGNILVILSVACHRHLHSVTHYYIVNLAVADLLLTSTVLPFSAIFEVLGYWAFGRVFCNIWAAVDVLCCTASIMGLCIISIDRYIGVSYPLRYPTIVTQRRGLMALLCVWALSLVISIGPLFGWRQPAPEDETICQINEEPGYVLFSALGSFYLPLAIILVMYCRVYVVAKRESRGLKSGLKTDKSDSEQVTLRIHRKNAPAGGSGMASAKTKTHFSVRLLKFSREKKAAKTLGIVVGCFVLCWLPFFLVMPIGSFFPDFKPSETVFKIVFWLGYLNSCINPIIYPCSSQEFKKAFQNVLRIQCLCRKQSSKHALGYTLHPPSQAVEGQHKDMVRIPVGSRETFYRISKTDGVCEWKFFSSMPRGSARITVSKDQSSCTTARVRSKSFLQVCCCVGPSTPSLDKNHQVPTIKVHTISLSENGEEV
# TEST_DETAILS: Antagonist activity at human adrenergic alpha1A receptor expressed in HEK293 cells assessed as inhibition of norepinephrine-induced [3H]inositol phosphate hydrolysis by scintillation counting
# Type: functional, cell-based
Form field: Ki (one value per entry).
Hey, just the number and the unit after it is fine.

entry_smiles=COc1ccccc1N1CCN(CCCCN2C(=O)CC(C)(c3ccccc3)CC2=O)CC1 study_system=UniProt:P35348 meas_value="31.6 nM"
entry_smiles=COc1ccccc1N1CCN(CCCCN2C(=O)CC3(CCc4ccccc43)CC2=O)CC1 study_system=UniProt:P35348 meas_value="10 nM"

Turning now to a further record.
For reference, reported Ki for COc1ccccc1N1CCN(CCCCN2C(=O)CC(c3ccccc3)CC2=O)CC1 stands at 2.51 nM
